# target.entity: HRH4 (Homo sapiens)
# Construct: purchased Promega (in-house HiBiT-GPCR construct library, NanoBRET)
# Sequence (Q9H3N8 whole entry): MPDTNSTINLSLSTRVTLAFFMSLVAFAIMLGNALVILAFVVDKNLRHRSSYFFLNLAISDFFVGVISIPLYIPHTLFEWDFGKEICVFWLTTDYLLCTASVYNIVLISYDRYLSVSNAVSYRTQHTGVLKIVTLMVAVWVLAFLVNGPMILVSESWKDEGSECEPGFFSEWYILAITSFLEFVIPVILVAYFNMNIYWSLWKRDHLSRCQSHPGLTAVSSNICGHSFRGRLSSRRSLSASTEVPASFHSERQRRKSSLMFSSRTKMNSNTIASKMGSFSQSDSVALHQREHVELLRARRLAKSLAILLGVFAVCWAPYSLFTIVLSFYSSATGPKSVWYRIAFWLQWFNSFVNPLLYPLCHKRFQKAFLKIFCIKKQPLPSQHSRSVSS
# method.notes: NanoBRET screen HiBiT-HRH4 in HEK293
# Type: binding
# recorded.conditions: HRH4; tracer 1μM
Each entry below carries its reported NanoBRET Fold Response.
Just the number, please, no unit attached.

CC(C)N(CC[C@H](c1ccccc1)c1cc(CCNC(=O)c2ccc(CNC(=O)CCc3ccc4n3[B-](F)(F)[N+]3=C(c5ccc[nH]5)C=CC3=C4)cc2)ccc1O)C(C)C	0.88
COc1ccccc1N1CCN(CCCCN2C(=O)c3ccc(CNC(=O)CCOCCNC(=O)c4ccc(CNC(=O)CCc5ccc6n5[B-](F)(F)[N+]5=C(c7ccc[nH]7)C=CC5=C6)cc4)cc3C2=O)CC1	0.93
CCCn1c(=O)c2[nH]c(-c3ccc(OCC(=O)NCCNC(=O)CCOCCNC(=O)c4ccc(CNC(=O)CCc5ccc6n5[B-](F)(F)[N+]5=C(c7ccc[nH]7)C=CC5=C6)cc4)cc3)nc2n(CCC)c1=O	1.05
O=C(CCc1ccc2n1[B-](F)(F)[N+]1=C(c3ccc[nH]3)C=CC1=C2)NCc1ccc(C(=O)NCCOCCC(=O)N[C@@H]2CC[C@@]3(O)[C@H]4Cc5ccc(O)c6c5[C@@]3(CCN4CC3CC3)[C@H]2O6)cc1 [Naltrexone-3-NB590]	0.91

Let us move to another entry and its NanoBRET Fold Response.
[Q] Param item = `CC(C)N(CC[C@H](c1ccccc1)c1cc(CCNC(=O)CCOCCOCCOCCOCCNC(=O)CCc2ccc3n2[B-](F)(F)[N+]2=C(c4ccc[nH]4)C=CC2=C3)ccc1O)C(C)C` ; retrieve measured NanoBRET Fold Response.
[A] 1.03

====

# target.entity: LHCGR (Homo sapiens)
# Construct: purchased Promega (in-house HiBiT-GPCR construct library, NanoBRET)
# Sequence (P22888 27-699): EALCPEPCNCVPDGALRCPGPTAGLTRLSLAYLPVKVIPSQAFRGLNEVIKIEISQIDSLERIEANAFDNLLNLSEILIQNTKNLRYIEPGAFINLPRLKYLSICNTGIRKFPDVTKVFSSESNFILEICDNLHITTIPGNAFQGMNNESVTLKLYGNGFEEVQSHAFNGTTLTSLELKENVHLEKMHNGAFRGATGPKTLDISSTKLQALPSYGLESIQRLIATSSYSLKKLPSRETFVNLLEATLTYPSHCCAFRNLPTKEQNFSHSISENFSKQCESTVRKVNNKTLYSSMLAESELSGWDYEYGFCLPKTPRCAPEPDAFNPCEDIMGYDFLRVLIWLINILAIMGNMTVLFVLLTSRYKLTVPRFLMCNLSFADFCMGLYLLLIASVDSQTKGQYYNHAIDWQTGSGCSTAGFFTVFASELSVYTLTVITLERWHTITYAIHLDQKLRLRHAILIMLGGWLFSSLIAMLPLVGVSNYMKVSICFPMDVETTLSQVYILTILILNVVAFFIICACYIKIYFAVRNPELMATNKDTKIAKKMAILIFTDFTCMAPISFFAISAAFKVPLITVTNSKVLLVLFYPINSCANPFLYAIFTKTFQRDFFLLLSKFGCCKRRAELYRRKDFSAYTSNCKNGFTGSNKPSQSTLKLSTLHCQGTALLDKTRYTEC
# method.notes: NanoBRET screen HiBiT-LHCGR in HEK293
# Assay type: binding
# recorded.conditions: LHCGR; tracer 1μM
# Method: Each tracer candidate was screened across the entire library of HiBiT-GPCR constructs using NanoBRET as the detection modality. As depicted in Figure 4A, the specificity of interactions was evaluated through decrease in BRET due to competitive displacement of a bound tracer by excess parental compound. Each tracer was analyzed for binding to each HiBiT-GPCR fusion in the absence and in the presence of competing parental compound. […]
In this section we review reported NanoBRET Fold Response values for a set of molecules.
Please reply with the value in numeric form only.

Some solved entries appear below for comparison.
COc1ccccc1N1CCN(CCCCN2C(=O)c3ccc(CNC(=O)CCOCCOCCOCCOCCNC(=O)CCc4ccc5n4[B-](F)(F)[N+]4=C(c6ccc[nH]6)C=CC4=C5)cc3C2=O)CC1	1.04
COc1ccccc1N1CCN(CCCCN2C(=O)c3ccc(CNC(=O)CCOCCNC(=O)c4ccc(CNC(=O)CCc5ccc6n5[B-](F)(F)[N+]5=C(c7ccc[nH]7)C=CC5=C6)cc4)cc3C2=O)CC1	1.08
O=C(CCOCCOCCOCCOCCNC(=O)CCc1ccc2n1[B-](F)(F)[N+]1=C(c3ccc[nH]3)C=CC1=C2)NCCCN1CCN(C2=Nc3ccccc3Oc3ccc(Cl)cc32)CC1	1.15
CC(C)N(CC[C@H](c1ccccc1)c1cc(CCNC(=O)CCOCCOCCOCCOCCNC(=O)CCc2ccc3n2[B-](F)(F)[N+]2=C(c4ccc[nH]4)C=CC2=C3)ccc1O)C(C)C	1.02

Consider the record given below.
[Q] Could you tell me which NanoBRET Fold Response is on file for `Cc1cc2c(s1)Nc1ccccc1N=C2N1CCN(CCCNC(=O)CCOCCOCCOCCOCCNC(=O)CCc2ccc3n2[B-](F)(F)[N+]2=C(c4ccc[nH]4)C=CC2=C3)CC1` ?
[A] 1.01

Data provenance is paper PMC8151276.
